molecular target: N-type Ca^2+ channel in IMR-32 cells (Homo sapiens, UniProt Q00975); construct: host or cells: IMR-32 (differentiated with dibutyryl cAMP and bromodeoxyuridine); assay: N-type Ca2+ channel blockade in IMR-32 cells (fluorescent Ca2+ indicator Indo-1); format: cell-based; conditions: IMR-32, 10 μM, 5 μM nitrendipine present
Sequence (Q00975 whole entry): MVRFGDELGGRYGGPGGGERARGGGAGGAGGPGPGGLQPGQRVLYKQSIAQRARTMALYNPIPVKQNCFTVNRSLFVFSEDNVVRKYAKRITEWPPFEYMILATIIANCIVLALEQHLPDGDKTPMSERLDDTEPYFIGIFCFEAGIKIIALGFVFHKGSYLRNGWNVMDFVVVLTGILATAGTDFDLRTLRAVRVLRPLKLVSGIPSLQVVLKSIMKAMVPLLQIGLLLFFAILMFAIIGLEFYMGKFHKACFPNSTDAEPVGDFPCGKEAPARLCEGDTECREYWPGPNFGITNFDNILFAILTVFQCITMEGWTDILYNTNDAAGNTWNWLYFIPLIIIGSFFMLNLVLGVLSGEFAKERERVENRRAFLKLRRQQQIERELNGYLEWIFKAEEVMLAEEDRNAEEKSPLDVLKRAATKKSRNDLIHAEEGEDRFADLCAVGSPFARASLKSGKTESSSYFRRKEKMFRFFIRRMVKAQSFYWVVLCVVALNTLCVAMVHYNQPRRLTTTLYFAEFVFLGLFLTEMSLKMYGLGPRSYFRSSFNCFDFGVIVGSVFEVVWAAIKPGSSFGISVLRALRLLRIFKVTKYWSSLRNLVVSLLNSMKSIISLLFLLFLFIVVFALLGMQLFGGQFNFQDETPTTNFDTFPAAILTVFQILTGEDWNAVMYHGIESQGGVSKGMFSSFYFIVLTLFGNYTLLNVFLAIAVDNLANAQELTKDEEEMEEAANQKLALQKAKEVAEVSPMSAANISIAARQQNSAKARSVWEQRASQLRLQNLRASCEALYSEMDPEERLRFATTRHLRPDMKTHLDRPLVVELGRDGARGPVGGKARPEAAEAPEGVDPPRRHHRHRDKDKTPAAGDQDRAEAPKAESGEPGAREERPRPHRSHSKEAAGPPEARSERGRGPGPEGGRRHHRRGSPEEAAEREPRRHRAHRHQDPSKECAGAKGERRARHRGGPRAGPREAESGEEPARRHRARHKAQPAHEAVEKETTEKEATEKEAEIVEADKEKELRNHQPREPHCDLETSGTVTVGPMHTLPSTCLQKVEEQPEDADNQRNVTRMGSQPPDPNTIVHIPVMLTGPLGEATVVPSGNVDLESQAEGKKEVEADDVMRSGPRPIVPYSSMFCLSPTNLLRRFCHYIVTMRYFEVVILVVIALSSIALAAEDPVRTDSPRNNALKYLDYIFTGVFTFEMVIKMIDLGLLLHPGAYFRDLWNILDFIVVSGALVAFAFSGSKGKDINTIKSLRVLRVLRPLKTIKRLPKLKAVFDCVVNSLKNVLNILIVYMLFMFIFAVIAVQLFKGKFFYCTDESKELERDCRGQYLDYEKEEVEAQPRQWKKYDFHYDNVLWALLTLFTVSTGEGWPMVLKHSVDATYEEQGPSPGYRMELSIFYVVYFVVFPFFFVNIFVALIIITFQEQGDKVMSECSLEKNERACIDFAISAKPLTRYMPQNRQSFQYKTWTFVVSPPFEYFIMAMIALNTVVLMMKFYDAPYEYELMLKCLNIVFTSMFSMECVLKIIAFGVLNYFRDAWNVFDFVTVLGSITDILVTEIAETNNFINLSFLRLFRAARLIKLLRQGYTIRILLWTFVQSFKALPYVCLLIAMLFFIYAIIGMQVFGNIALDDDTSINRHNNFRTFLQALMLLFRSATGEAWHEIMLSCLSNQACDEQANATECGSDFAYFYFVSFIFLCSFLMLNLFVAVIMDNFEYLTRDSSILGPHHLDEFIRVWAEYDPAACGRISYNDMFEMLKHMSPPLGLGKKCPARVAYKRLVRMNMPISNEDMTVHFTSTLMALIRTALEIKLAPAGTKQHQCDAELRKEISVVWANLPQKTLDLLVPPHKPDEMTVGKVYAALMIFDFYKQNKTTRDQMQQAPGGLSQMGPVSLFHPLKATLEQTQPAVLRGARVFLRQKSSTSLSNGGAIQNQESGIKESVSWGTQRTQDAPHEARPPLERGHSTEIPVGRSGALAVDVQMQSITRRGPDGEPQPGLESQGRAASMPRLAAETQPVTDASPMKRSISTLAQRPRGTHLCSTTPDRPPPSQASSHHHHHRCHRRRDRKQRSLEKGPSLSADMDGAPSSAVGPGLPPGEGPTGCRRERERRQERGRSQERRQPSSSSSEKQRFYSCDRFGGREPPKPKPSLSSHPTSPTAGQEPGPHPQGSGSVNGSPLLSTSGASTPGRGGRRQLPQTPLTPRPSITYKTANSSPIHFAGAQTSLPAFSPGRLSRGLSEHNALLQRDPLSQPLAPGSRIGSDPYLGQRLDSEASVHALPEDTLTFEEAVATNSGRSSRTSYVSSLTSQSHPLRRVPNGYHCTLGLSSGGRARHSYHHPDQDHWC

molecule	readout_units	inhibition at 10 µM
CC(C)=CCN(c1ccc(OCc2ccccc2)cc1)C1CCN(C(=O)C2CN(C)CCN2CCC(C)C)CC1 (centres unmarked)	%	88
CC(C)=CCN(c1ccc(OCc2ccccc2)cc1)C1CCN(C(=O)C2C(C)CCCN2CCC(C)C)CC1 (centres unmarked)	%	88
CC(C)=CCN(c1ccc(OCc2ccccc2)cc1)C1CCN(CCC(C)C)CC1	%	79
CC(C)=CCN(c1ccc(C(C)C)cc1)C1CCN(Cc2ccc(F)cc2)CC1	%	84
CC(C)=CCN(c1ccc(OCc2ccccc2)cc1)C1CCN(Cc2ccccn2)CC1	%	100
CC(C)=CCN(c1ccc(OC(C)C)cc1)C1CCN(CCC(C)C)CC1	%	76
CC(C)=CCN(c1ccc(OCc2ccccc2)cc1)C1CCN(C(=O)C2CCCN(CCC(C)C)C2)CC1 (centres unmarked)	%	75
CC(C)=CCN(c1ccc(OCc2ccccc2)cc1)C1CCN(CCC(C)(C)C)CC1	%	93
CC(C)=CCN(c1ccc(C(C)C)cc1)C1CCN(C(C)CO)CC1 (centres unmarked)	%	70
CC(C)=CCN(c1ccc(C(C)C)cc1)C1CCN(C(=O)[C@@H](O)CC(C)C)CC1	%	85
CC(C)=CCN(c1ccc(C(C)C)cc1)C1CCN(Cc2cccnc2)CC1	%	79
CC(C)=CCN(c1ccc(OCc2ccccc2)cc1)C1CCN(C(=O)C2CN(C(C)C)CCN2CCC(C)C)CC1 (centres unmarked)	%	92
CC(C)=CCN(c1ccc(OCc2ccccc2)cc1)C1CCN(C(=O)[C@@H](O)CC(C)C)CC1	%	107
CC(C)=CCN(c1ccc(OCc2ccccc2)cc1)C1CCN(Cc2c[nH]cn2)CC1	%	71
CC(C)CCN(c1ccc(OCc2ccc(F)cc2)cc1)C1CCN(CCC(C)(C)C)CC1	%	99
CC(C)=CCN(c1ccc(OCc2ccccc2)cc1)C1CCN(Cc2ccc(O)cc2)CC1	%	100
CC(C)=CCN(c1cccc(OCc2ccccc2)c1)C1CCN(CCC(C)(C)C)CC1	%	98

###

Reported inhibition at 1 µM is given for each of the following compounds.
molecular target: N-type Ca^2+ channel in IMR-32 cells (Homo sapiens, UniProt Q00975); construct: host or cells: IMR-32 (differentiated with dibutyryl cAMP and bromodeoxyuridine); assay: N-type Ca2+ channel blockade in IMR-32 cells (fluorescent Ca2+ indicator Indo-1); type: cell-based; conditions: IMR-32, 1 μM, 5 μM nitrendipine present

compound	readout_units	inhibition at 1 µM
CC(C)=CCN(c1ccc(C(C)C)cc1)C1CCN(C(=O)[C@@H](O)CC(C)C)CC1	%	28
CC(C)=CCN(c1ccc(C(C)C)cc1)C1CCN(C(C)CO)CC1 (stereo not drawn)	%	0
CC(C)=CCN(c1ccc(C(C)C)cc1)C1CCN(CCC(C)(C)C)CC1	%	43

###

target: N-type Ca^2+ channel in IMR-32 cells (Homo sapiens); construct: host or cells: IMR-32 (differentiated with dibutyryl cAMP and bromodeoxyuridine); experiment: N-type Ca2+ channel blockade in IMR-32 cells (fluorescent Ca2+ indicator Indo-1); assay type: cell-based; details: IMR-32, 10 μM, 5 μM nitrendipine present
inhibition at 10 µM: recorded values

compound	readout_units	inhibition at 10 µM
CC(C)=CCN(c1ccc(OCc2ccccc2)cc1)C1CCN(C2CCOCC2)CC1	%	62
CC(C)=CCN(c1ccc(CCC(C)(C)C)cc1)C1CCN(CCC(C)C)CC1	%	92
CC(C)=CCN(c1ccc(OCc2ccccc2)cc1)C1CCCN(Cc2ccc(C(C)(C)C)cc2)C1 (centres unmarked)	%	96
CC(C)=CCN(c1ccc(OCc2ccccc2)cc1)C1CCN(C(=O)C2CC(C)CCN2CCC(C)C)CC1 (centres unmarked)	%	76
CC(C)=CCN(c1ccc(OC(C)C)cc1)C1CCN(CCC(C)(C)C)CC1	%	74
CC(C)=CCN(c1ccc(OCc2ccccc2)cc1)C1CCN(C(=O)C2CCN(CCC(C)C)CC2)CC1	%	75
CC(C)=CCN(c1ccc(OCc2ccccc2)cc1)C1CCN(C(=O)C2CCCC(C)N2CCC(C)C)CC1 (centres unmarked)	%	78
CC(C)=CCN(c1ccc(OCc2ccccc2)cc1)C1CCN(Cc2ccc(Br)cc2)CC1	%	94

###

molecular target: N-type Ca^2+ channel in IMR-32 cells (Homo sapiens); construct: host or cells: IMR-32 (differentiated with dibutyryl cAMP and bromodeoxyuridine); test: N-type Ca2+ channel blockade in IMR-32 cells (fluorescent Ca2+ indicator Indo-1); format: cell-based; conditions: IMR-32, 1 μM, 5 μM nitrendipine present
# cutoff 50% applies to inhibition at 1 µM; >= gives Satisfied, < gives Not satisfied

molecule	category
CC(C)=CCN(c1ccc(CCC(C)(C)C)cc1)C1CCN(CCC(C)C)CC1 [Example 37]	Not satisfied
CC(C)=CCN(c1ccc(OCc2ccccc2)cc1)C1CCN(Cc2ccc(C(C)(C)C)cc2)CC1 [Example 3]	Satisfied
CC(C)=CCN(c1ccc(OCc2ccccc2)cc1)C1CCN(C(=O)C2CCCCN2CCC(C)C)CC1 (centres unmarked) [Example 11]	Not satisfied
CC(C)=CCN(c1ccc(C(C)C)cc1)C1CCN(Cc2ccc[nH]2)CC1 [Example 33]	Satisfied
CC(C)=CCN(c1ccc(OCc2ccccc2)cc1)C1CCCN(Cc2ccc(C(C)(C)C)cc2)C1 (centres unmarked) [Example 50]	Satisfied
CC(C)=CCN(c1ccc(OCc2ccccc2)cc1)C1CCN(Cc2c[nH]cn2)CC1 [Example 8]	Not satisfied
CC(C)CCN(c1ccc(OCC2CCCCC2)cc1)C1CCN(CCC(C)(C)C)CC1 [Example 42]	Satisfied

###

target: N-type Ca^2+ channel in IMR-32 cells (Homo sapiens, UniProt Q00975); assay: N-type Ca2+ channel blockade in IMR-32 cells (fluorescent Ca2+ indicator Indo-1); settings: 5 μM nitrendipine present
pIC50: −log10 of the molar value.
endpoint_name: pIC50

compound	endpoint_result
CC(C)=CCN(c1ccc(OCc2ccccc2)cc1)C1CCN(Cc2ccccc2)CC1	6.14
CC(C)=CCN(c1ccc(CCC(C)(C)C)cc1)C1CCN(Cc2ccc[nH]2)CC1	6.05
CC(C)=CCN(c1ccc(OCc2ccccc2)cc1)C1CCN(CCC(C)O)CC1 (stereo not drawn)	5.52
CC(C)=CCN(c1ccc(OCc2ccccc2)cc1)C1CCN(CCCc2ccccc2)CC1	6.30
CC(C)=CCN(c1ccc(OCc2ccccc2)cc1)C1CCCN(Cc2ccccc2)C1 (stereo not drawn)	5.92
CC(C)=CCN(c1ccc(OCc2ccccc2)cc1)C1CCN(Cc2ccco2)CC1	5.41
CC(C)=CCN(c1ccc(OCc2ccccc2)cc1)C1CCN(Cc2ccc(S(C)(=O)=O)cc2)CC1	5.74
CC(C)=CCN(c1ccc(OCc2ccccc2)cc1)C1CCN(CCc2ccccc2)CC1	6.52
CC(C)CCN(c1ccc(OCC2CCCCC2)cc1)C1CCN(CCC(C)O)CC1 (stereo not drawn)	5.82

###

molecular target: N-type Ca^2+ channel in IMR-32 cells (Homo sapiens, UniProt Q00975); construct: host or cells: IMR-32 (differentiated with dibutyryl cAMP and bromodeoxyuridine); experiment: N-type Ca2+ channel blockade in IMR-32 cells (fluorescent Ca2+ indicator Indo-1); format: cell-based; conditions: IMR-32, 10 μM, 5 μM nitrendipine present

molecule	inhibition at 10 µM (%)
CC(C)=CCN(c1ccc(OCc2ccccc2)cc1)C1CCN(C(=O)C2CCCCN2CCC(C)C)CC1 (centres unmarked) [Example 11]	80
CC(C)=CCN(c1ccc(C(C)C)cc1)C1CCN(Cc2ccc[nH]2)CC1 [Example 33]	98
CC(C)=CCN(c1ccc(C(C)C)cc1)C1CCN(Cc2c[nH]cn2)CC1 [Example 31]	62
CC(C)CCN(c1ccc(OCC2CCCCC2)cc1)C1CCN(CCC(C)(C)C)CC1 [Example 42]	81
CC(C)=CCN(c1ccc(CCC(C)(C)C)cc1)C1CCN(CCC(C)(C)C)CC1 [Example 38]	83

###

target: N-type Ca^2+ channel in IMR-32 cells (Homo sapiens); construct: host or cells: IMR-32 (differentiated with dibutyryl cAMP and bromodeoxyuridine); assay: N-type Ca2+ channel blockade in IMR-32 cells (fluorescent Ca2+ indicator Indo-1); type: cell-based; details: IMR-32, 1 μM, 5 μM nitrendipine present
// classify(record): look up inhibition at 1 µM in ranges low band (below 30%), middle band (30% to below 60%), high band (60% or more)

compound	category
CC(C)=CCN(c1ccc(OCc2ccccc2)cc1)C1CCN(CCC(C)(C)C)CC1 [Example 2]	high band
CC(C)CCN(c1ccc(OCc2ccc(F)cc2)cc1)C1CCN(CCC(C)(C)C)CC1 [Example 43]	high band
CC(C)=CCN(c1ccc(CCC(C)(C)C)cc1)C1CCN(CCC(C)(C)C)CC1 [Example 38]	middle band
CC(C)=CCN(c1ccc(C(C)C)cc1)C1CCN(CCC(C)C)CC1 [Example 28]	middle band
CC(C)=CCN(c1ccc(OCc2ccccc2)cc1)C1CCN(Cc2ccc(F)cc2)CC1 [Example 25]	high band
CC(C)=CCN(c1cccc(OCc2ccccc2)c1)C1CCN(CCC(C)(C)C)CC1 [Example 46]	middle band
CC(C)=CCN(c1ccc(OCc2ccccc2)cc1)C1CCN(C2CCOCC2)CC1 [Example 10]	low band
CC(C)=CCN(c1ccc(OC(C)C)cc1)C1CCN(Cc2ccc(F)cc2)CC1 [Example 35]	middle band
CC(C)=CCN(c1ccc(C(C)C)cc1)C1CCN(Cc2c[nH]cn2)CC1 [Example 31]	low band
CC(C)=CCN(c1ccc(OCc2ccccc2)cc1)C1CCN(C(=O)C2CCCN(CCC(C)C)C2)CC1 (stereo not drawn) [Example 12]	middle band
CC(C)=CCN(c1ccc(C(C)C)cc1)C1CCN(CCC(C)O)CC1 (stereo not drawn) [Example 27]	low band
CC(C)CCN1CCC(N(CCC(C)C)c2ccc(OCC3CCCCC3)cc2)CC1 [Example 40]	high band
CC(C)=CCN(c1ccc(OC(C)C)cc1)C1CCN(CCC(C)(C)C)CC1 [Example 36]	low band
CC(C)=CCN(c1ccc(OC(C)C)cc1)C1CCN(CCC(C)C)CC1 [Example 34]	low band
CC(C)=CCN(c1ccc(C(C)C)cc1)C1CCN(Cc2ccc(F)cc2)CC1 [Example 29]	low band
CC(C)=CCN(c1ccc(OCc2ccccc2)cc1)C1CCN(C(=O)C2CC(C)CCN2CCC(C)C)CC1 (stereo not drawn) [Example 17]	high band
CC(C)=CCN(c1ccc(OCc2ccccc2)cc1)C1CCN(Cc2ccc(O)cc2)CC1 [Example 5]	middle band
